- TESTED_SYSTEM: HLA-A*02:01
- METHOD_DESCRIPTION: IEDB peptide-MHC binding, purified MHC/direct/fluorescence; filed as Kd, often an IC50 or EC50 that approximates it; bounds were set here for any values at or beyond the usual limits of such assays
- CONDITION_PARAMETERS: source organism: Cryptosporidium parvum
TEST_READOUT: Kd
Give me the value, and tack the unit on after it.

# Kd measured on HLA-A*02:01 for item WLPWIPQLI = 1240 nM

====

- TESTED_SYSTEM: HLA-A*03:01
- METHOD_DESCRIPTION: IEDB peptide-MHC binding, purified MHC/competitive/fluorescence; bounds were set here for any values at or beyond the usual limits of such assays
- CONDITION_PARAMETERS: source organism: Monodelphis domestica
TEST_READOUT: IC50

Reported IC50 ( YSLEYFQFVKK ) = ≥ 20 µM

Numbers sourced from the Immune Epitope Database (IEDB).
